// provenance: patent EP4647082A1

# Method: Phase I first-in-human study, pharmacokinetics after single ascending subcutaneous doses in healthy volunteers
# Assay type: in vivo
# Protocol conditions: human, plasma; single SC dose 1 mg; nominal time 1 h; mean; read-out: Plasma Concentration AXN-001
Bridge positions count the residues as written; N and C are the ends. Square brackets hold non-standard residues; d marks the D form. Peptide text beside a SMILES is read from it. * marks the point of attachment. Phe(2-CONH2) = NC(=O)c1ccccc1C[C@H](N)C(=O)O; Orn(iPr) = CC(C)NCCC[C@H](N)C(=O)O; Oxazole2carbonyl = O=C(c1ncco1)*; 3Pal = N[C@@H](Cc1cccnc1)C(=O)O
Measured property: level at 1 h (µg/mL)
Answers are plain numbers, in µg/mL.

Just so you know, measured level at 1 h for CC(C)NCCC[C@@H]1NC(=O)[C@@H](NC(=O)[C@H](Cc2ccccc2C(N)=O)NC(=O)[C@H](NC(=O)c2ncco2)C(C)C)CSSC[C@@H](C(=O)N[C@@H](Cc2cccnc2)C(N)=O)NC(=O)[C@H](Cc2ccccc2)NC(=O)[C@@H]2CCCN2C(=O)CNC(=O)[C@H](C(C)C)NC(=O)[C@H](CC(=O)O)NC1=O [AXN-001] (Oxazole2carbonyl-[dV][Phe(2-CONH2)]C[Orn(iPr)]DVGPFC[3Pal]-NH2; disulfide 3-10) came out at 0.0351
